PROCEDURE_TEXT: Pharmacokinetics after single and multiple doses, part 1
Format: in vivo, human
CONDITIONS: human, plasma, oral, 25 mg, Cmax,ss, elderly, 25 mg QD, multiple dose, gMean (%CV)
REPORTED_PROPERTY: Cmax (nM)

* C[C@@H](Oc1ccc(S(C)(=O)=O)cc1C(=O)N1C[C@@H]2C[C@]2(c2cc(C(F)(F)F)on2)C1)C(F)(F)F [BI 425809] | 618

---

PROCEDURE_TEXT: Pharmacokinetics after single and multiple doses, part 1
Type: in vivo, human
CONDITIONS: human, plasma, oral, 50 mg, tmax,ss, elderly, 50 mg QD, multiple dose, median and range (minimum, maximum)
REPORTED_PROPERTY: Tmax (h)

* C[C@@H](Oc1ccc(S(C)(=O)=O)cc1C(=O)N1C[C@@H]2C[C@]2(c2cc(C(F)(F)F)on2)C1)C(F)(F)F | 4.5

Origin of measurements: paper PMC6061410
